- system: PARP2 FL N129A (human (Homo sapiens), UniProt Q9UGN5 1-583, N129A)
- Sequence (Q9UGN5 whole entry N129A): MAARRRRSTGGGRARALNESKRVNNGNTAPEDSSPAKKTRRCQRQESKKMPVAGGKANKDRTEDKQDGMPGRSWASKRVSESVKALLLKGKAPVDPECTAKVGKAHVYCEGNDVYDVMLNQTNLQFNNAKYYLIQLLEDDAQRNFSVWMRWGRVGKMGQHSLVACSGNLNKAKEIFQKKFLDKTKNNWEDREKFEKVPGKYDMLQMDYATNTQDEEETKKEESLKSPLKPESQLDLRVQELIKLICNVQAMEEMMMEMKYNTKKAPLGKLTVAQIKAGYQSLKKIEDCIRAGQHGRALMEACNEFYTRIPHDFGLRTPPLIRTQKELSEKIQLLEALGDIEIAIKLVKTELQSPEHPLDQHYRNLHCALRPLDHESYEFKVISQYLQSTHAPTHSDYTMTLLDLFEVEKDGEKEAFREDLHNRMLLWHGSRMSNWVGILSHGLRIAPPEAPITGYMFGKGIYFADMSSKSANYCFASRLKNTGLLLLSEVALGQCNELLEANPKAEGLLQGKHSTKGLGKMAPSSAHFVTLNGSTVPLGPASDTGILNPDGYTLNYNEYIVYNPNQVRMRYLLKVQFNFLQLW
- test description: fluorescence polarization; mean and SD of 3 listed KDs (14.36, 8.278, 5.785); FP buffer, salt, pH and temperature not given (as in cited ref 17); crystallization: complex purified in 20 mM Hepes pH 7.5, 300 mM NaCl, 0.5 mM TCEP; crystals
- experimental conditions: protein: recombinant; tags: His-tag construct, TEV cleaved; label: fluorescein on internal T10; dumbbell of two hairpins (TTTT loops) with one nick
quantity: Kd (nM)
One number for each entry, in nM.

Q) Quick check: Kd of GGAAGTCTTTTGACTTCCTCGAAGCTTTTGCTTCGA (structured_DNA, 5'-phosphate) [DNA-8 nicked dumbbell] ?
A) 9.47

Cited source: paper PMC8190142
